- Test Target: AgSla1-D1-D2
- Assay Name: SPOT peptide array binding signal intensity (averaged, normalized) (arbitrary units (background-subtracted, floor 0; scale differs between SH3 domains)); higher = stronger binding of the SH3 domain to the peptide
SPOT peptide array binding signal intensity for assorted binders
// response body must contain only the number

Reference set (3 entries):
1) TIRRRAPLSLLESHT 32
2) RLSRLLLSLPPESFT 85
3) QQNRPLPQLPNRNNR 1

Query: SPOT peptide array binding signal intensity; subject: `ATNVPVAPPPPPASL`
4.5

Now give it for `RRTRLRPPTPLSQLL` too.
93

# iterate: `NLKKRPPTAPQRKIS`
370

Similarly, `MAMRPIPPLPTESEY` ?
2

Record: `AGKRRLPLVRFKASD`
736

Next up: `RRSKSLPITPKSIFN`
350

Also check `FVLRYYILIPHEQWD`
14.5
